Data provenance is patent US20130296258A1.

Target: T1, Recombinant human Glypican-3 (human, UniProt P51654 25-559, limits assumed, randomly biotinylated via Lysine residues (EZ-Link Sulfo-NHS-LC-LC-Biotin) where captured on Neutravidin; not biotinylated where used as competitor in solution)
T1 construct: Bought protein; The biotinylated and the non-biotinylated preparation are written as one molecule; also called GPC3; GPC-3
T1 sequence (P51654 25-559 limits assumed): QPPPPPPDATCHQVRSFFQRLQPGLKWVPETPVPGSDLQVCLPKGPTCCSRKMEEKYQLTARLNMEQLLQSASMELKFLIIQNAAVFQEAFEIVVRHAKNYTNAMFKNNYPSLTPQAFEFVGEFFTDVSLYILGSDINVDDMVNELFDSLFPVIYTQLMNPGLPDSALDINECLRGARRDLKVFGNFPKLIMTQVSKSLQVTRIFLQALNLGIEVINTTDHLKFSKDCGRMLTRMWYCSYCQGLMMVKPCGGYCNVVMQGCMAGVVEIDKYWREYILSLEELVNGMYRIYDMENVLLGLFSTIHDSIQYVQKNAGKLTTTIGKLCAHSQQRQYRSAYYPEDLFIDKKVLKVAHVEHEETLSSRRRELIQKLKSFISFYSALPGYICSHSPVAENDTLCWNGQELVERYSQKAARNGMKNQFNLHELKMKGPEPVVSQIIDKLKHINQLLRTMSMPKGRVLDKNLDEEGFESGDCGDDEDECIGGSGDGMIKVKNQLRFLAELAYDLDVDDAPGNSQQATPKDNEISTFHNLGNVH
Assay: flow cytometry on SK-HEP1 cells stably transfected with human GPC3, detection via rabbit anti-hNGAL antiserum and anti-rabbit IgG-PE
Below, each of the binders is paired with its reported EC50 value.
Entry rule: numbers only, all in nM.

// known answers, use as guide
PIE-G3G (designed binder, C-terminal Strep-tag II; also called Lcn2 mutein; not shown: C-terminal Strep-tag II) QDSTSDLIPAPPLSKVPLQQNFQDNQFHGKWYVVGMAGNASLREDKDPRKMNATIYELKEDKSYNVTKVRFWHKKCYYSITTFVPGSQPGEFTLGDIKSYPGWTSYLVRVVSTNYNQHAMVFFKGVRQNREWFSITLYGRTKELTSELKENFIRFSKSLGLPENHIVFPVPIDQCIDGSAWSHPQFEK: 0.7
PIE-G3D (designed binder, C-terminal Strep-tag II; also called Lcn2 mutein; not shown: C-terminal Strep-tag II) QDSTSDLIPAPPLSKVPLQQNFQDNQFHGKWYVVGMAGNARLREDKDPVKMTATIYELKEDKSYNVTAVQFRLKKCQYGITTFVPGSQPGEFTLGDIKSIPGLTSMLVRVVSTNYNQHAMVFFKRVRQNREFFDITLYGRTKELTSELKENFIRFSKSLGLPENHIVFPVPIDQCIDGSAWSHPQFEK: 1
PIE-G3C (designed binder, C-terminal Strep-tag II; also called Lcn2 mutein; not shown: C-terminal Strep-tag II) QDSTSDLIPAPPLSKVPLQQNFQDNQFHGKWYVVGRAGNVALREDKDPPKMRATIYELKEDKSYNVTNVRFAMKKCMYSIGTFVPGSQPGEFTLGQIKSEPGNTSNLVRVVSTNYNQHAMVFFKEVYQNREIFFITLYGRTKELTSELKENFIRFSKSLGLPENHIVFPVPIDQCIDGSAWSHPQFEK: 0.5

// fetch EC50 given entry PIE-G3B (designed binder, C-terminal Strep-tag II; also called Lcn2 mutein; not shown: C-terminal Strep-tag II) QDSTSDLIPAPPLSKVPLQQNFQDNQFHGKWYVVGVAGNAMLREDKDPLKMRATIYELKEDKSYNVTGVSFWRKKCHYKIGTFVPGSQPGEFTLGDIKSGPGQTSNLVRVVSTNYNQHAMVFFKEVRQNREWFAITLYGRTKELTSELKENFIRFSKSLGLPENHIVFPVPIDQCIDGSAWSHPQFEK
2.5

Consider the binder PIE-G3F (designed binder, C-terminal Strep-tag II; also called Lcn2 mutein; not shown: C-terminal Strep-tag II) QDSTSDLIPAPPLSKVPLQQNFQDNQFHGKWYVVGIAGNGQLREDKDPWKMSATIYELKEDKSYNVTSVRFRLKKCSYWIYTFVPGSQPGEFTLGGIKSNPGDTSNLVRVVSTNYNQHAMVFFKYVIQNREWFIITLYGRTKELTSELKENFIRFSKSLGLPENHIVFPVPIDQCIDGSAWSHPQFEK . State its measured EC50.
4.7

Look up and state reported EC50 for PIE-G3E (designed binder, C-terminal Strep-tag II; also called Lcn2 mutein; not shown: C-terminal Strep-tag II) QDSTSDLIPAPPLSKVPLQQNFQDNQFHGKWYVVGSAGNHRLREDKDPRKMHATIYELKEDKSYNVTNVTFREKKCHYSIGTFVPGSQPGEFTLGKIKSNPGMTSFLVRVVSTNYNQHAMVFFKKVHQNREQFNITLYGRTKELTSELKENFIRFSKSLGLPENHIVFPVPIDQCIDGSAWSHPQFEK
0.4

For the binder PIE-G3H (designed binder, C-terminal Strep-tag II; also called Lcn2 mutein; not shown: C-terminal Strep-tag II) QDSTSDLIPAPPLSKVPLQQNFQDNQFHGKWYVVGIAGNYILREDKDPPKMRATIYELKEDKSYNVTRVFFSRKKCDYIIWTFVPGSQPGEFTLGFIKSNPGLTSLLVRVVSTNYNQHAMVFFKWVDQNREVFGITLYGRTKELTSELKENFIRFSKSLGLPENHIVFPVPIDQCIDGSAWSHPQFEK , report EC50.
49
